# reported selectivity ratio; entries follow
Test: Therapeutic index, ratio of MHC10 for hemolytic activity in mouse erythrocytes preincubated with 10% mouse serum for 1 hr to MIC for Staphylococcus aureus ATCC 25923 preincubated with 10% mouse serum for 1 hr
Format: toxicity, cell-based
Conditions: mouse erythrocytes, read-out: TI
Where a SMILES comes first, the peptide text is derived from it. Side-chain parts run from the residue outwards.
API doc: respond with a numeric literal and nothing else, no unit.

Use the examples below as a reference point.
# compound, selectivity ratio
data = [
    ("N=C(N)NCCC[C@H](NC(=O)[C@H](CCCNC(=N)N)NC(=O)[C@H](CCCNC(=N)N)NC(=O)[C@@H](N)CCCNC(=N)N)C(=O)N[C@@H](CCCCN)C(=O)N[C@@H](Cc1c[nH]c2ccccc12)C(=O)N[C@@H](Cc1c[nH]c2ccccc12)C(=O)N[C@@H](Cc1c[nH]c2ccccc12)C(=O)N[C@@H](Cc1c[nH]c2ccccc12)C(N)=O", 0.5),
    ("N=C(N)NCCC[C@H](NC(=O)[C@H](CCCNC(=N)N)NC(=O)[C@H](CCCNC(=N)N)NC(=O)[C@H](CCCNC(=N)N)NC(=O)[C@H](CCCCNC(=O)[C@H](Cc1c[nH]c2ccccc12)NC(=O)[C@@H](N)Cc1c[nH]c2ccccc12)NC(=O)[C@H](Cc1c[nH]c2ccccc12)NC(=O)[C@@H](N)Cc1c[nH]c2ccccc12)C(N)=O (H-WWK([Trp-Trp])RRRR-NH2)", 0.5),
]

Let us move to another entry and its selectivity ratio.
selectivity ratio for N=C(N)NCCC[C@H](NC(=O)[C@@H](N)CCCNC(=N)N)C(=O)NCCCC[C@H](NC(=O)[C@H](CCCNC(=N)N)NC(=O)[C@@H](N)CCCNC(=N)N)C(=O)N[C@@H](Cc1c[nH]c2ccccc12)C(=O)N[C@@H](Cc1c[nH]c2ccccc12)C(=O)N[C@@H](Cc1c[nH]c2ccccc12)C(=O)N[C@@H](Cc1c[nH]c2ccccc12)C(N)=O (H-RRK([Arg-Arg])WWWW-NH2) is 1
